Study Target: BAF3 FL KIT EX11DEL/T670I (Homo sapiens, UniProt P10721, T670I, cells depend on it, form not given)
Construct: BAF3 FL KIT EX11DEL/T670I
Sequence (P10721 with tags, fused parts or gaps DEL557-558/T670I, form open): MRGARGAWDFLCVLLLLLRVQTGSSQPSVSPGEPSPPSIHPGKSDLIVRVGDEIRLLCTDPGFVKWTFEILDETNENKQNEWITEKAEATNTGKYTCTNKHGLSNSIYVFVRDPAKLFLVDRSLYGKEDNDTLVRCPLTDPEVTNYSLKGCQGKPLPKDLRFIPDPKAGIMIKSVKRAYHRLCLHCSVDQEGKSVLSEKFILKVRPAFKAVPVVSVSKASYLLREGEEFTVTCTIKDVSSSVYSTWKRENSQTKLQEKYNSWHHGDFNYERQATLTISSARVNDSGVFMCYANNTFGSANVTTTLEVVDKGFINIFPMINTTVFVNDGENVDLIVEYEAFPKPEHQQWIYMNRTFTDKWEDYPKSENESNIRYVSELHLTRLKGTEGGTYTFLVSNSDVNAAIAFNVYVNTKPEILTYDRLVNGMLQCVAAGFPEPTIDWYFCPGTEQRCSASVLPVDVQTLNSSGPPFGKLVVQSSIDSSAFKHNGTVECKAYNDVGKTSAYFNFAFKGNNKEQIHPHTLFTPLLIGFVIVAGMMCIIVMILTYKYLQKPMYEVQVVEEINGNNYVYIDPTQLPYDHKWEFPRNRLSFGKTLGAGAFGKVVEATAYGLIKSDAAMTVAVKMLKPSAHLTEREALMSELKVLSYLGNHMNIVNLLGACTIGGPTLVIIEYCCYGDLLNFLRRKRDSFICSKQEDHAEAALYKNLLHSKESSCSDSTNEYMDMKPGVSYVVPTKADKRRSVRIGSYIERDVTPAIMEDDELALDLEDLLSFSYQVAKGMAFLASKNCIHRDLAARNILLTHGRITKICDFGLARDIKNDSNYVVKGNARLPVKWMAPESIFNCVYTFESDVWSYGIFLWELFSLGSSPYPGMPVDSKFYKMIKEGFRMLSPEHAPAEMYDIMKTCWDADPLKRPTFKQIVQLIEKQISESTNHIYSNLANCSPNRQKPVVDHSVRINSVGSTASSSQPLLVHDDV
Measurement Notes: c-Kit assay: Ba/F3 KIT mutant cell viability (Cell Titer-Glo, 72 hours)
Format: cell-based
Test Settings: viability after 72 hours
Observable: GI50

Below are worked cases with known answers.
[[record]]
compound = "COCCN(C)C(=O)Nc1ncc(C#Cc2cc(C(=O)Nc3ccc(C#N)c(C(F)(F)F)c3)ccc2C)s1 [I-48]"
observable = "GI50"
assay_value = "10 to 50 nM"

[[record]]
compound = "Cc1ccc(C(=O)Nc2ccc(CN3CCN(C)CC3)c(C(F)(F)F)c2)cc1C#Cc1cnc(NC(=O)C2CC2)s1 [I-50]"
observable = "GI50"
assay_value = "10 to 50 nM"

[[record]]
compound = "Cc1ccc(NC(=O)c2cc(C(F)(F)F)ccn2)cc1C#Cc1cnc(NC(=O)N(C)CCN(C)C)s1 [I-58]"
observable = "GI50"
assay_value = "100 to 10000 nM"


Incoming: Look up GI50 of NC(=O)Nc1ncc(C#Cc2ccc(F)c(C(=O)Nc3cc(C(F)(F)F)ccn3)c2)s1 [I-43] and report it.
Outgoing: 100 to 10000 nM

Incoming: Look up GI50 of Cc1ccc(C(=O)Nc2cc(C(F)(F)F)ccn2)cc1C#Cc1cnc(NC(=O)N2CCC(N3CCN(C)CC3)CC2)s1 [I-41] and report it.
Outgoing: 10 to 50 nM

Incoming: Look up GI50 of COC(=O)Nc1ncc(C#Cc2cc(C(=O)Nc3cc(C(F)(F)F)ccn3)ccc2C)s1 [I-3] and report it.
Outgoing: 10 to 50 nM

Incoming: Look up GI50 of Cc1ccc(C(=O)Nc2cc(C(F)(F)F)ccn2)cc1C#Cc1cnc(NC(=O)N(C)CCN2CCCC2)s1 [I-19] and report it.
Outgoing: 10 to 50 nM

Incoming: Look up GI50 of Cc1ccc(C(=O)Nc2cc(C(F)(F)F)ccn2)cc1C#Cc1cnc(NC(=O)N(C)CCO)s1 [I-10] and report it.
Outgoing: < 10 nM

====

Study Target: BAF3 FL KIT EX11DEL/V654A (Homo sapiens, UniProt P10721, V654A, cells depend on it, form not given)
Construct: BAF3 FL KIT EX11DEL/V654A
Sequence (P10721 with tags, fused parts or gaps DEL557-558/V654A, form open): as the sequence (P10721 with tags, fused parts or gaps DEL557-558/T670I, form open) above, with V652A, I668T counted along it
Measurement Notes: c-Kit assay: Ba/F3 KIT mutant cell viability (Cell Titer-Glo, 72 hours)
Type: cell-based
Test Settings: viability after 72 hours
Observable: GI50

Incoming: Look up GI50 of Cc1ccc(C(=O)Nc2cc(C(F)(F)F)ccn2)cc1C#Cc1cnc(NC(=O)N(C)C2CCC(N)CC2)s1 (centres unmarked) and report it.
Outgoing: 50 to 100 nM

====

Study Target: BAF3 FL KIT EX11DEL (Homo sapiens, UniProt P10721, cells depend on it, form not given)
Construct: BAF3 FL KIT EX11DEL
Sequence (P10721 with tags, fused parts or gaps DEL557-558): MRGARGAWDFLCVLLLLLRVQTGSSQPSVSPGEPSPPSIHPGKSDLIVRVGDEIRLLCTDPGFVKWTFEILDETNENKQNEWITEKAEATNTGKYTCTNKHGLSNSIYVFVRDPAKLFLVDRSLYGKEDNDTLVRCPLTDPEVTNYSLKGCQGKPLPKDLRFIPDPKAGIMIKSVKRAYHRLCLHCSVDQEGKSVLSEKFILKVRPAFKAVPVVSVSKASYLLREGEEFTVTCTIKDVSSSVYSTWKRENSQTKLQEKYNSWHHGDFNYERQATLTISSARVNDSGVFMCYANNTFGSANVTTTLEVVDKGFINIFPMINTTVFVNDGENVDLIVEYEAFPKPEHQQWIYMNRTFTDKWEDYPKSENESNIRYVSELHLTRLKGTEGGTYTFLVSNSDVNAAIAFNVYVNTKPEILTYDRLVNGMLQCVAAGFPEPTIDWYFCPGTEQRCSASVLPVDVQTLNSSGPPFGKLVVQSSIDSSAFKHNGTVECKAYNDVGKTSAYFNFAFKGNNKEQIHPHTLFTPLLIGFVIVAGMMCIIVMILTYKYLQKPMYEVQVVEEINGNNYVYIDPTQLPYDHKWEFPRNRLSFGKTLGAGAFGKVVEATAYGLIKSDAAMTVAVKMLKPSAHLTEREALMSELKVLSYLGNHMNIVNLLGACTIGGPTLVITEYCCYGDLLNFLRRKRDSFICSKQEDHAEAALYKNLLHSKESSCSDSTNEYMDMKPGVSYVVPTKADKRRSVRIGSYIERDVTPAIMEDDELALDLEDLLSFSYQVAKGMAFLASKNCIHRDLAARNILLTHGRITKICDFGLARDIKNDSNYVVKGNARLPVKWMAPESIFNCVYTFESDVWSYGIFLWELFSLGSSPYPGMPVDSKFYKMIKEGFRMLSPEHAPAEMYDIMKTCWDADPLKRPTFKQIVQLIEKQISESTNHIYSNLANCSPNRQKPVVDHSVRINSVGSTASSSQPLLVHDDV
Measurement Notes: c-Kit assay: Ba/F3 KIT mutant cell viability (Cell Titer-Glo, 72 hours)
Assay type: cell-based
Test Settings: viability after 72 hours
Observable: GI50

Below are worked cases with known answers.
[[record]]
molecule = "Cc1ccc(C(=O)Nc2cc(C(F)(F)F)ccn2)cc1C#Cc1cnc(NC(=O)NC2CC2)s1"
study_target = "BAF3 FL KIT EX11DEL (Homo sapiens, UniProt P10721, cells depend on it, form not given)"
assay_value = "< 10 nM"

[[record]]
molecule = "NC(=O)Nc1ncc(C#Cc2ccc(F)c(C(=O)Nc3cc(C(F)(F)F)ccn3)c2)s1"
study_target = "BAF3 FL KIT EX11DEL (Homo sapiens, UniProt P10721, cells depend on it, form not given)"
assay_value = "< 10 nM"

[[record]]
molecule = "Cc1ccc(NC(=O)c2cc(C(F)(F)F)ccn2)cc1C#Cc1cnc(NC(=O)N(C)CCN(C)C)s1"
study_target = "BAF3 FL KIT EX11DEL (Homo sapiens, UniProt P10721, cells depend on it, form not given)"
assay_value = "< 10 nM"

[[record]]
molecule = "Cc1ccc(C(=O)Nc2cc(C(F)(F)F)ccn2)cc1C#Cc1cnc(NC(=O)N(C)C2CCN(C)CC2)s1"
study_target = "BAF3 FL KIT EX11DEL (Homo sapiens, UniProt P10721, cells depend on it, form not given)"
assay_value = "< 10 nM"

[[record]]
molecule = "CNCCN(C)C(=O)Nc1ncc(C#Cc2cc(C(=O)Nc3cc(C(F)(F)F)ccn3)ccc2C)s1"
study_target = "BAF3 FL KIT EX11DEL (Homo sapiens, UniProt P10721, cells depend on it, form not given)"
assay_value = "< 10 nM"


Incoming: Look up GI50 of Cc1ccc(C(=O)Nc2cc(C(F)(F)F)ccn2)cc1C#Cc1cnc(NC(=O)N(C)C2CCC(N)CC2)s1 (centres unmarked) and report it.
Outgoing: 10 to 50 nM

Incoming: Look up GI50 of COCCN(C)C(=O)Nc1ncc(C#Cc2cc(C(=O)Nc3ccc(CN4CCCC4)c(C(F)(F)F)c3)ccc2C)s1 and report it.
Outgoing: 10 to 50 nM

Incoming: Look up GI50 of Cc1ccc(C(=O)Nc2cc(C(F)(F)F)ccn2)cc1C#Cc1cnc(NC(=O)N2CC(C)(O)C2)s1 and report it.
Outgoing: < 10 nM

====

Reported GI50 is given for each of the following compounds.
Study Target: BAF3 FL KIT EX11DEL/D816H (Homo sapiens, UniProt P10721, D816H, cells depend on it, form not given)
Construct: BAF3 FL KIT EX11DEL/D816H
Sequence (P10721 with tags, fused parts or gaps DEL557-558/D816H, form open): as the sequence (P10721 with tags, fused parts or gaps DEL557-558) above, with D814H counted along it
Measurement Notes: c-Kit assay: Ba/F3 KIT mutant cell viability (Cell Titer-Glo, 72 hours)
Type: cell-based
Test Settings: viability after 72 hours

Below are worked cases with known answers.
[[record]]
compound = "CC(=O)N1CCN(C(=O)Nc2ncc(C#Cc3cc(C(=O)Nc4cc(C(F)(F)F)ccn4)ccc3C)s2)CC1 [I-37]"
assay_value = "< 10 nM"

[[record]]
compound = "CNC(=O)Nc1ncc(C#Cc2cc(NC(=O)c3cc(C(F)(F)F)ccn3)ccc2C)s1 [I-57]"
assay_value = "< 10 nM"

[[record]]
compound = "Cc1ccc(C(=O)Nc2cc(C(F)(F)F)ccn2)cc1C#Cc1cnc(NC(=O)N(C)CCO)s1 [I-10]"
assay_value = "< 10 nM"

[[record]]
compound = "Cc1ccc(C(=O)Nc2cc(C(F)(F)F)ccn2)cc1C#Cc1cnc(NC(=O)NCCCCN)s1 [I-31]"
assay_value = "50 to 100 nM"

[[record]]
compound = "Cc1ccc(C(=O)Nc2cc(C(F)(F)F)ccn2)cc1C#Cc1cnc(NC(=O)N2CCOC(CN(C)C)C2)s1 (stereo not drawn) [I-34]"
assay_value = "10 to 50 nM"


Lab note: next compound to report on.
Incoming: Look up GI50 of COCCN(C)C(=O)Nc1ncc(C#Cc2cc(C(=O)Nc3cccc(C(F)(F)F)c3OC)ccc2C)s1 [I-47] and report it.
Outgoing: 10 to 50 nM

====

Study Target: BAF3 FL KIT EX11DEL/T670I (Homo sapiens, UniProt P10721, T670I, cells depend on it, form not given)
Construct: BAF3 FL KIT EX11DEL/T670I
Measurement Notes: c-Kit assay: Ba/F3 KIT mutant cell viability (Cell Titer-Glo, 72 hours)
Format: cell-based
Test Settings: viability after 72 hours
Observable: GI50

Below are worked cases with known answers.
[[record]]
molecule = "Cc1ccc(C(=O)Nc2cc(C(F)(F)F)ccn2)cc1C#Cc1cnc(NC(=O)N2CCOCC2)s1"
observable = "GI50"
assay_value = "< 10 nM"

[[record]]
molecule = "Cc1ccc(C(=O)Nc2cc(C(F)(F)F)ccn2)cc1C#Cc1cnc(NC(=O)N2CC(C)(O)C2)s1"
observable = "GI50"
assay_value = "< 10 nM"

[[record]]
molecule = "Cc1ccc(NC(=O)c2cc(C(F)(F)F)ccn2)cc1C#Cc1cnc(NC(=O)N(C)C2CCN(C)CC2)s1"
observable = "GI50"
assay_value = "50 to 100 nM"

[[record]]
molecule = "Cc1ccc(C(=O)Nc2cc(C(F)(F)F)ccn2)cc1C#Cc1cnc(NC(=O)N2CCOC(CN(C)C)C2)s1 (stereo not shown)"
observable = "GI50"
assay_value = "10 to 50 nM"

[[record]]
molecule = "COCCNC(=O)Nc1ncc(C#Cc2cc(C(=O)Nc3cc(C(F)(F)F)ccn3)ccc2C)s1"
observable = "GI50"
assay_value = "10 to 50 nM"


Incoming: Look up GI50 of Cc1ccc(C(=O)Nc2cc(C(F)(F)F)ccn2)cc1C#Cc1cnc(NC(=O)N2CCC(C)CC2)s1 and report it.
Outgoing: 10 to 50 nM

Incoming: Look up GI50 of COCCN(C)C(=O)Nc1ncc(C#Cc2cc(C(=O)Nc3cccc(C(F)(F)F)c3OC)ccc2C)s1 and report it.
Outgoing: 100 to 10000 nM

Incoming: Look up GI50 of CNC(=O)Nc1ncc(C#Cc2cc(C(=O)Nc3cc(C(F)(F)F)ccn3)ccc2C)s1 and report it.
Outgoing: < 10 nM

Incoming: Look up GI50 of Cc1ccc(C(=O)Nc2cc(C(F)(F)F)ccn2)cc1C#Cc1cnc(NC(=O)N(C)C)s1 and report it.
Outgoing: < 10 nM

Incoming: Look up GI50 of Cc1ccc(C(=O)Nc2cc(C(F)(F)F)ccn2)cc1C#Cc1cnc(NC(=O)N2CCC(N(C)C)C2)s1 (stereo not shown) and report it.
Outgoing: < 10 nM
